Catalogue of λabs values
Experiment: Optical properties (absorption, emission, extinction coefficient) of BDP635 and derivative SBDPiRs
Type: physicochemical

Smiles Code	λabs
F[B-]1(F)n2c(cc3sc(-c4cccs4)cc32)C(C(F)(F)F)=C2C=c3sc(-c4cccs4)cc3=[N+]21	733 nm
COc1ccc(C=Cc2cc3c(s2)=CC2=C(C(F)(F)F)c4cc5sc(C=Cc6ccc(OC)cc6)cc5n4[B-](F)(F)[N+]=32)cc1	786 nm
F[B-]1(F)n2c(cc3sc(-c4ccccc4)cc32)C(C(F)(F)F)=C2C=c3sc(-c4ccccc4)cc3=[N+]21	688 nm
COc1cc(-c2cc3c(s2)=CC2=C(C(F)(F)F)c4cc5sc(-c6cc(OC)c(OC)c(OC)c6)cc5n4[B-](F)(F)[N+]=32)cc(OC)c1OC	728 nm
CN(C)c1ccc(-c2cc3c(s2)=CC2=C(C(F)(F)F)c4cc5sc(-c6ccc(N(C)C)cc6)cc5n4[B-](F)(F)[N+]=32)cc1	841 nm
F[B-]1(F)n2c(cc3sc(Sc4ccccc4)cc32)C(C(F)(F)F)=C2C=c3sc(Sc4ccccc4)cc3=[N+]21	694 nm
Oc1ccc(-c2cc3c(s2)=CC2=C(C(F)(F)F)c4cc5sc(-c6ccc(O)cc6)cc5n4[B-](F)(F)[N+]=32)cc1	738 nm
F[B-]1(F)n2c(cc3sc(Oc4ccc(-c5ccccc5)cc4)cc32)C(C(F)(F)F)=C2C=c3sc(Oc4ccc(-c5ccccc5)cc4)cc3=[N+]21	649 nm
COc1ccc(Oc2cc3c(s2)=CC2=C(C(F)(F)F)c4cc5sc(Oc6ccc(OC)cc6)cc5n4[B-](F)(F)[N+]=32)cc1	649 nm
